Test Target: IL-23 (human, p19/p40 heterodimer) (Homo sapiens) (UniProt Q9NPF7+P29460)
Sequence (Q9NPF7 20-189, chain 1 of 2): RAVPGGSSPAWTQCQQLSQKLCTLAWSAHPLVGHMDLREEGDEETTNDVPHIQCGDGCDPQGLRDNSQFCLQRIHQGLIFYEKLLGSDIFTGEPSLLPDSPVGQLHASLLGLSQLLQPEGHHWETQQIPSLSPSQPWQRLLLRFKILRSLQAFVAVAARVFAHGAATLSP
Sequence (P29460 23-328, chain 2 of 2): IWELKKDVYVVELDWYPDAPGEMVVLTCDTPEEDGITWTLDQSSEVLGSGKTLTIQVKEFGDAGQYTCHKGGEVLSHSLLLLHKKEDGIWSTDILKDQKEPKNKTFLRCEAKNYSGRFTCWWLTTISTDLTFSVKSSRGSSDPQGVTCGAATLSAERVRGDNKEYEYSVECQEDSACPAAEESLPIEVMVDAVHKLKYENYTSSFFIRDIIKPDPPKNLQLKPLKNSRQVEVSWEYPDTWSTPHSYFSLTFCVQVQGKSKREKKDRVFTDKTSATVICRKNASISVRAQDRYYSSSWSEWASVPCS
Test Summary: filter
Condition Notes: deoxy A,G; 2'-OMe C,U; dI at G17,G18; 3'-idT [17,18]; DPBS Ca Mg
Endpoint: Kd (nM)
State the answer as a number, implicitly in nM.

Tested on IL-23 (human, p19/p40 heterodimer) (Homo sapiens) (UniProt Q9NPF7+P29460), the item ACAGGCAAGUAAUUGGGGAGUGCGGGCGGGGUGU [ARC1601] showed Kd equal to 4.4

====

Test Target: IL-23 (human, p19/p40 heterodimer) (Homo sapiens) (UniProt Q9NPF7+P29460)
Test Summary: filter
Condition Notes: dRmY; deoxyinosine at G28-G31; 3'-idT [deoxyinosine at 28-31 (parent base G written); 2'-deoxy purines; 2'-OMe C/U (2,6,10,13,14,21,23,27,32,34); 3'-inverted dT at 35]; dot blot; DPBS with Ca and Mg, 0.1 mg/mL BSA, 30 min RT
Endpoint: Kd (nM)
State just the number; it will be interpreted in nM.

Note to self: Kd recorded for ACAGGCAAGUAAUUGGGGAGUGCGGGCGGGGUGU [ARC1618] was 34

====

Reported Kd values follow for various sequences
Test Target: IL-12 (mouse, p35/p40 heterodimer) (Mus musculus) (UniProt P43431+P43432)
Sequence 1: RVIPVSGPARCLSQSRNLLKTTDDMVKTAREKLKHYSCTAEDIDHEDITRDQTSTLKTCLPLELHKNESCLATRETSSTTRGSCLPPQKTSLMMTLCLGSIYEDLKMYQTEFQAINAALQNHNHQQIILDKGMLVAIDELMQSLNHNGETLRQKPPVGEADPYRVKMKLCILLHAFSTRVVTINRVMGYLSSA
Sequence 2: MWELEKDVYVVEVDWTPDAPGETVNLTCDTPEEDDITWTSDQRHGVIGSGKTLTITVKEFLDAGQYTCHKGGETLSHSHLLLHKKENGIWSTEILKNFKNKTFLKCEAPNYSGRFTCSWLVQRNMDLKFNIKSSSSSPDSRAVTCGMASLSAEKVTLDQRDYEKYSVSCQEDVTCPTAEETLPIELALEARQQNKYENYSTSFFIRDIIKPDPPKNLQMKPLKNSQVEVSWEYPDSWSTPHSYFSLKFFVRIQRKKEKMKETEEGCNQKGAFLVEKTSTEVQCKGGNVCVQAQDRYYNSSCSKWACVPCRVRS
Test Summary: filter
Condition Notes: 2'-F all C and U (rRfY); 1X PBS, 0.1 mg/mL BSA, 30 min RT
Write it as a number; the unit µM goes unstated.

Solved cases below.
GGAGCGCACUCNGCCACUUCGGAAUAUCGUUGUCUUCUGGGUGAGCAUGCGUUGAGGUUUCNACCUCUCUGCUAGC [AMX369.B2]	0.252
GGAGCGCACUCAGCCACUGGGGAACAUCUCAUGUCUCUGACCGCUCUUGCAGUAGAAUUUNGACCUCUCUGCUAGC [AMX369.G3]	0.261

// below: Kd requested for another sequence
Kd measured on GGAGCGCACUCAGCCACGGUUUACUUCCGUGGCAAUAUUGACCUCNCUCUAGACAGGUUUCGACCUCUCUGCUAGC [AMX369.F1] = 0.165

====

Test Target: IL-23 (human, p19/p40 heterodimer) (Homo sapiens) (UniProt Q9NPF7+P29460)
Test Summary: filter
Condition Notes: deoxy A,G; 2'-OMe C,U; dI at G28,G29; 3'-idT [dI at 28,29 (G parent); 2'-OMe C/U at 2,6,10,13,14,21,23,27,32,34; other A,G deoxy; 3'-inverted dT at 35]; DPBS Ca Mg
Endpoint: Kd (nM)
Give your result in nM as a bare value.

Record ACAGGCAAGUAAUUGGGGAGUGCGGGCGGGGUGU [ARC1615] . Reported Kd: 5.8

====

Test Target: IL-23 (human, p19/p40 heterodimer) (Homo sapiens) (UniProt Q9NPF7+P29460)
Test Summary: filter
Condition Notes: deoxy A,G; 2'-OMe C,U; dI at G15,G16; 3'-idT [15,16]; DPBS Ca Mg
Endpoint: Kd (nM)
Respond with the bare value in nM.

Form: sequence = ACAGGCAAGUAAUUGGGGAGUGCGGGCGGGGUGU [ARC1599] ; Kd = 7.2

====

Form field: pKd (one value per entry).
Test Target: IL-23 (human, p19/p40 heterodimer) (Homo sapiens) (UniProt Q9NPF7+P29460)
Test Summary: filter
Condition Notes: 2'-F C,U; SHMCK, tRNA
Keep it numeric: pKd is minus log10 of the concentration in mol/L.

GGGAAAAGCGAAUCAUACACAAGAGCGCUUUAGCGGGUAUAGCACUUUUCAUCUAAUGAANCCGUAGCUCCGCCAGAGACCAACCGAGAA [AMX86-H11]	6.44

The sequence listed as GGGAAAAGCGAAUCAUACACAAGAGGUUGAGUACGACGGAGUCNUGGCUAACACGGAAACUAGAGCUCCGCCAGAGACCAACCGAGAA [AMX86-B9] shows pKd equal to 7.63

Looking up AGGGAAAAGGAAUCAUACACAAGAUGUAUCAUCCGGUCGUACAAAAGCGCCACGGAACCAUUCGCUCCGCCAGANACCAACCGAGAA [ARX33-plate1-H01] , I found its pKd recorded as 7.11

Record summary for GGGAAAAGCGAAUCCUACCCAAGAUGUUGUUGGCGUUGAUCGUAUGAUUNAUGGAGNGUGUCNGUGCUCCGCCAGAGACCAACCGAGAA [AMX86-E7] : reported pKd = 6.68

====

Test Target: IL-23 (human, p19/p40 heterodimer) (Homo sapiens) (UniProt Q9NPF7+P29460)
Test Summary: filter
Condition Notes: 2'-F all C and U (rRfY); 1X SHMCK, 1 mM Mg, 1 mM Ca, 0.1 mg/mL tRNA, RT
Endpoint: Kd (nM)
Only the number, expressed in nM, is required.

Kd for IL-23 (human, p19/p40 heterodimer) (Homo sapiens) (UniProt Q9NPF7+P29460) with input GGGAAAAGCGAAUCAUACACAAGAUGUUGAACCUCUUGUGCGUCCCGAUGUUUNGCAAUGUGGAGCUCCGCCAGAGACCAACCGAGAA [AMX86-F7] equals 147

====

Test Target: IL-23 (human, p19/p40 heterodimer) (Homo sapiens) (UniProt Q9NPF7+P29460)
Test Summary: filter
Condition Notes: deoxy A,G; 2'-OMe C,U; dI at G29; 3'-idT [dI at 29 (G parent); 2'-OMe C/U at 2,6,10,13,14,21,23,27,32,34; other A,G deoxy; 3'-inverted dT at 35]; DPBS Ca Mg
Endpoint: pKd
Scale: negative log10 of molar concentration, which is what pKd denotes.

pKd for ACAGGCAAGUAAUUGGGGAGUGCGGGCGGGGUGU [ARC1612] is 8.72

====

Test Target: IL-23 (human, p19/p40 heterodimer) (Homo sapiens) (UniProt Q9NPF7+P29460)
Test Summary: filter
Condition Notes: deoxy A,G; 2'-OMe C,U; dI at G30; 3'-idT [dI at 30 (G parent); 2'-OMe C/U at 2,6,10,13,14,21,23,27,32,34; other A,G deoxy; 3'-inverted dT at 35]; DPBS Ca Mg
Endpoint: Kd

Lab note: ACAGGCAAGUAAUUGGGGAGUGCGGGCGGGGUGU [ARC1613] gave Kd of 2.3 nM

====

Test Target: IL-23 (human, p19/p40 heterodimer) (Homo sapiens) (UniProt Q9NPF7+P29460)
Test Summary: filter
Condition Notes: deoxy A,G; 2'-OMe C,U; dI at G28; 3'-idT [dI at 28 (G parent); 2'-OMe C/U at 2,6,10,13,14,21,23,27,32,34; other A,G deoxy; 3'-inverted dT at 35]; DPBS Ca Mg
Endpoint: Kd (nM)
Give just the number in nM; leave the unit off.

Kd reading for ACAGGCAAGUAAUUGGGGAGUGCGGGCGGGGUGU [ARC1611] : 1.7

====

Test Target: IL-12 (human, p35/p40 heterodimer) (Homo sapiens) (UniProt P29459+P29460)
Sequence (P29459 23-219, chain 1 of 2): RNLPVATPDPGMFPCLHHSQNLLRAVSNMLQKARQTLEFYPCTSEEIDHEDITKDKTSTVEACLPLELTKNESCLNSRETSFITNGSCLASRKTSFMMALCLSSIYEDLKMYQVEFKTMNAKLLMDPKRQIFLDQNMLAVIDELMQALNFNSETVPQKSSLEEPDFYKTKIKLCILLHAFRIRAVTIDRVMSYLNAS
Sequence (P29460 23-328, chain 2 of 2): as the sequence (P29460 23-328, chain 2 of 2) above
Test Summary: filter
Condition Notes: 2'-F all C and U (rRfY); 1X SHMCK, 0.1 mg/mL tRNA, RT
Endpoint: Kd (nM)
Entry rule: numbers only, all in nM.

Value sought: Kd, system IL-12 (human, p35/p40 heterodimer) (Homo sapiens) (UniProt P29459+P29460), item GGGAAAAGCGAAUCAUACACAAGAUGUUGAACCUCUUGUGCGUCCCGAUGUUUNGCAAUGUGGAGCUCCGCCAGAGACCAACCGAGAA [AMX86-F7] . Result: 106

====

Test Target: IL-23 (human, p19/p40 heterodimer) (Homo sapiens) (UniProt Q9NPF7+P29460)
Test Summary: filter
Condition Notes: deoxy A,G; 2'-OMe C,U; dI at G25,G26; 3'-idT [25,26]; DPBS Ca Mg
Endpoint: pKd
pKd here: minus log base 10 of the concentration, concentration in moles per litre.

The sequence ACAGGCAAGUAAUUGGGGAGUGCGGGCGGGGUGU [ARC1609] , tested on IL-23 (human, p19/p40 heterodimer) (Homo sapiens) (UniProt Q9NPF7+P29460), showed pKd of 8.33
